Reported RBNS R-value values for the following sequences.
System: PfIESI-1 RRM domain (Plasmodium falciparum ortholog aa 875-1232, GST fusion)
experiment notes: RBNS R-value (6-mer enrichment in protein-bound RNA vs input library) (ratio); higher = stronger binding preference
stated conditions: protein concentration: 1000 nM
Whole data set: some 4,100 sequences, median “RBNS R-value (6-mer enrichment in protein-bound RNA vs input library)” near 0.99, cut for the highest 2% near 1.4. The list comes from a sample in which the highest values are over-represented; it also holds close analogues and randomly drawn sequences.
assay metric: RBNS R-value

[[record]]
sequence_data = "ACUGCC"
experimental_result = 0.986

[[record]]
sequence_data = "CAUGAU"
experimental_result = 1.85

[[record]]
sequence_data = "CAGUCU"
experimental_result = 0.963

[[record]]
sequence_data = "GUCAAG"
experimental_result = 0.946

[[record]]
sequence_data = "AAGGUA"
experimental_result = 0.987

[[record]]
sequence_data = "AAUGAG"
experimental_result = 1.07

[[record]]
sequence_data = "GGCAUU"
experimental_result = 0.972

[[record]]
sequence_data = "AGAUUU"
experimental_result = 1.16

[[record]]
sequence_data = "GGUCGG"
experimental_result = 0.968

[[record]]
sequence_data = "CUUUUU"
experimental_result = 0.919

[[record]]
sequence_data = "GCCUCA"
experimental_result = 1.02

[[record]]
sequence_data = "CUGCGG"
experimental_result = 1.05


###

Reported RBNS R-value values for the following sequences.
System: PfIESI-1 RRM domain (Plasmodium falciparum ortholog aa 875-1232, GST fusion)
experiment notes: RBNS R-value (6-mer enrichment in protein-bound RNA vs input library) (ratio); higher = stronger binding preference; the methods of the paper give 50 / 100 / 500 nM protein instead
stated conditions: protein concentration: 250 nM
The full ranking holds about 4,100 sequences; the median of “RBNS R-value (6-mer enrichment in protein-bound RNA vs input library)” is about 0.99, and the highest 2% start at about 1.4. Only a selection was taken, and the highest values are over-represented in it overall.
assay metric: RBNS R-value

[[record]]
sequence_data = "CGGGGU"
experimental_result = 1.06

[[record]]
sequence_data = "UAUGCA"
experimental_result = 0.846

[[record]]
sequence_data = "GACUAA"
experimental_result = 0.913

[[record]]
sequence_data = "ACGAUC"
experimental_result = 0.952

[[record]]
sequence_data = "GAUUUU"
experimental_result = 1.78

[[record]]
sequence_data = "CAGUAA"
experimental_result = 0.864

[[record]]
sequence_data = "CUGACA"
experimental_result = 1.13

[[record]]
sequence_data = "AGAUGC"
experimental_result = 1.18

[[record]]
sequence_data = "CAGAUA"
experimental_result = 0.988

[[record]]
sequence_data = "CCUGAC"
experimental_result = 1.14

[[record]]
sequence_data = "AGAGAG"
experimental_result = 1.19

[[record]]
sequence_data = "AGCGUA"
experimental_result = 0.911

[[record]]
sequence_data = "AUGAUC"
experimental_result = 1.38

[[record]]
sequence_data = "GAUUUG"
experimental_result = 1.88

[[record]]
sequence_data = "CCUGAA"
experimental_result = 1.17

[[record]]
sequence_data = "AUUCUU"
experimental_result = 1.04

[[record]]
sequence_data = "UCGAUA"
experimental_result = 0.937

[[record]]
sequence_data = "CCUCUA"
experimental_result = 0.848

[[record]]
sequence_data = "AUGAGC"
experimental_result = 1.14

[[record]]
sequence_data = "ACGAUG"
experimental_result = 1.33

[[record]]
sequence_data = "UUGAGA"
experimental_result = 1.19

[[record]]
sequence_data = "AAUGCG"
experimental_result = 0.939

[[record]]
sequence_data = "GUCGAG"
experimental_result = 0.954

[[record]]
sequence_data = "UAUGCG"
experimental_result = 0.899

[[record]]
sequence_data = "CCGCCA"
experimental_result = 1.08

[[record]]
sequence_data = "CAUCUC"
experimental_result = 0.925

[[record]]
sequence_data = "UCCACU"
experimental_result = 0.991

[[record]]
sequence_data = "AACCAA"
experimental_result = 0.985

[[record]]
sequence_data = "CCAACU"
experimental_result = 0.966

[[record]]
sequence_data = "ACUAGG"
experimental_result = 0.943

[[record]]
sequence_data = "UGAGAG"
experimental_result = 1.18

[[record]]
sequence_data = "AGAUGA"
experimental_result = 1.49

[[record]]
sequence_data = "CCCUCG"
experimental_result = 1.05

[[record]]
sequence_data = "UGCUAU"
experimental_result = 0.951

[[record]]
sequence_data = "UAUAGC"
experimental_result = 0.876

[[record]]
sequence_data = "UAUGCC"
experimental_result = 0.946

[[record]]
sequence_data = "CGAUGG"
experimental_result = 1.24

[[record]]
sequence_data = "AAAUAG"
experimental_result = 0.904

[[record]]
sequence_data = "AUGAUG"
experimental_result = 3.17

[[record]]
sequence_data = "CUGCGG"
experimental_result = 1.03

[[record]]
sequence_data = "GAGCGU"
experimental_result = 0.994

[[record]]
sequence_data = "GAACUU"
experimental_result = 0.955

[[record]]
sequence_data = "GAAUAC"
experimental_result = 0.992

[[record]]
sequence_data = "AAUUUU"
experimental_result = 0.989

[[record]]
sequence_data = "AGUACG"
experimental_result = 0.91

[[record]]
sequence_data = "UACAAA"
experimental_result = 0.828

[[record]]
sequence_data = "CAUUUU"
experimental_result = 0.932

[[record]]
sequence_data = "AUAUGA"
experimental_result = 1.1

[[record]]
sequence_data = "CAUUUG"
experimental_result = 1.03


Hey, just so you know, these numbers are from the supplement of paper PMC13392028.
